- System: C. glabrata
- assay_notes: Antifungal activities, MIC/MFC
- Format: cell-based
- assay_context: Table 2, 2nd value in brackets, C. glabrata; read-out: minimum inhibitory concentration (MIC)
measured_parameter: MIC (µM)
Reply with just the number (in µM).

Ask: Any idea what its MIC is? The compound is CC1OC(O[C@H]2/C=C/C=C/C=C/C=C/C=C/C=C/C=C/[C@H](C)[C@@H](O)[C@@H](C)[C@H](C)OC(=O)C[C@H](O)C[C@H](O)CC[C@@H](O)[C@H](O)C[C@H](O)C[C@]3(O)C[C@H](O)[C@@H](C(=O)NCCCCNC(=O)C(CCCCNC(=O)CC[C@@H](C)C4CCC5C6C(O)CC7CC(OC(=O)NCCN(C)C)CCC7(C)C6CC(O)C54C)NC(=O)CC[C@@H](C)C4CCC5C6C(O)CC7CC(OC(=O)NCCN(C)C)CCC7(C)C6CC(O)C54C)[C@H](C2)O3)C(O)C(N)C1O (stereo partly shown) [YM-19]
Result: 32

Ask: Any idea what its MIC is? The compound is CC1OC(O[C@H]2/C=C/C=C/C=C/C=C/C=C/C=C/C=C/[C@H](C)[C@@H](O)[C@@H](C)[C@H](C)OC(=O)C[C@H](O)C[C@H](O)CC[C@@H](O)[C@H](O)C[C@H](O)C[C@]3(O)C[C@H](O)[C@@H](C(=O)NCCCCNC(=O)C(CCCCNC(=O)CC[C@@H](C)C4CCC5C6C(O)CC7CC(OC(=O)NCCCCN)CCC7(C)C6CC(O)C54C)NC(=O)CC[C@@H](C)C4CCC5C6C(O)CC7CC(OC(=O)NCCCCN)CCC7(C)C6CC(O)C54C)[C@H](C2)O3)C(O)C(N)C1O (stereo partly shown) [YM-18]
Result: 16

Ask: Any idea what its MIC is? The compound is CC1OC(O[C@H]2/C=C/C=C/C=C/C=C/C=C/C=C/C=C/[C@H](C)[C@@H](O)[C@@H](C)[C@H](C)OC(=O)C[C@H](O)C[C@H](O)CC[C@@H](O)[C@H](O)C[C@H](O)C[C@]3(O)C[C@H](O)[C@@H](C(=O)NCCCCCCCC(=O)N(CCCCNC(=O)CC[C@@H](C)C4CCC5C6C(OC(=O)NCCCCN)CC7CC(OC(=O)NCCCCN)CCC7(C)C6CC(OC(=O)NCCCCN)C54C)CCCNC(=O)CC[C@@H](C)C4CCC5C6C(OC(=O)NCCCCN)CC7CC(OC(=O)NCCCCN)CCC7(C)C6CC(OC(=O)NCCCCN)C54C)[C@H](C2)O3)C(O)C(N)C1O (stereo partly shown) [VJ-1147]
Result: 16

Ask: Any idea what its MIC is? The compound is CC1OC(O[C@H]2/C=C/C=C/C=C/C=C/C=C/C=C/C=C/[C@H](C)[C@@H](O)[C@@H](C)[C@H](C)OC(=O)C[C@H](O)C[C@H](O)CC[C@@H](O)[C@H](O)C[C@H](O)C[C@]3(O)C[C@H](O)[C@@H](C(=O)NCCCCCCCC(=O)N(CCCCNC(=O)CC[C@@H](C)C4CCC5C6C(O)CC7CC(O)CCC7(C)C6CC(O)C54C)CCCNC(=O)CC[C@@H](C)C4CCC5C6C(O)CC7CC(O)CCC7(C)C6CC(O)C54C)[C@H](C2)O3)C(O)C(N)C1O (stereo partly shown) [VJ-1138]
Result: 4

###

- Tested on: C. glabrata
- assay_notes: Antifungal activities, MIC/MFC
- Type: cell-based
- assay_context: Table 2, 2nd value in brackets, C. glabrata; read-out: minimum inhibitory concentration (MIC)
measured_parameter: MIC (µM)
Reply with just the number (in µM).

Ask: Record CC1OC(O[C@H]2/C=C/C=C/C=C/C=C/C=C/C=C/C=C/[C@H](C)[C@@H](O)[C@@H](C)[C@H](C)OC(=O)C[C@H](O)C[C@H](O)CC[C@@H](O)[C@H](O)C[C@H](O)C[C@]3(O)C[C@H](O)[C@@H](C(=O)NCCCCNC(=O)C(CCCCNC(=O)CC[C@@H](C)C4CCC5C6C(O)CC7CC(OC(=O)NCC(O)C(O)C(O)C(O)CO)CCC7(C)C6CC(O)C54C)NC(=O)CC[C@@H](C)C4CCC5C6C(O)CC7CC(OC(=O)NCC(O)C(O)C(O)C(O)CO)CCC7(C)C6CC(O)C54C)[C@H](C2)O3)C(O)C(N)C1O (stereo partly shown) : what is its MIC with C. glabrata?
Result: 8
